measured.on: T1, CRBN, Q96SW2
T1 chain: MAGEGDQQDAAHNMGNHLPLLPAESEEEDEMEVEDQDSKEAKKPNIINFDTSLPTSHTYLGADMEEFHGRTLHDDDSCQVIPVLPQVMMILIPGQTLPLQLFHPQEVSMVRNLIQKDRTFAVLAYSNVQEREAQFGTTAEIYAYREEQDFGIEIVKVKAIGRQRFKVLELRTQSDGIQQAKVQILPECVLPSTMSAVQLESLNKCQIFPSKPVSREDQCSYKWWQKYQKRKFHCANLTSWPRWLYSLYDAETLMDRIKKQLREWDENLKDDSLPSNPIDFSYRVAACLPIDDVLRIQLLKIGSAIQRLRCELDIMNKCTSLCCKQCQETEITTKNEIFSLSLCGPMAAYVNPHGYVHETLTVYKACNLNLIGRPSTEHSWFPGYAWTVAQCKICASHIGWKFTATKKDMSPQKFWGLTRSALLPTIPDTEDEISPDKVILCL
assay.protocol: log2 fold change of degron read counts, EGFP-low vs EGFP+ sorted cells (limma voom), compound-induced degradation; higher = more compound-induced degradation of the degron-EGFP fusion; degrons are variants of IKZF1/3 zinc finger 2; compound dose not given here;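 note: pooled lentiviral library of zinc finger degron-EGFP fusions in mCherry-positive Jurkat cells, FACS-sorted after compound exposure, with degron abundance counted by next-generation sequencing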
measurement.setup: Jurkat; 18 h; compound: thalidomide
Whole data set: some 8,300 sequences, median “log2 fold change of degron read counts, EGFP-low vs EGFP+ sorted cells (limma voom), compound-induced degradation” near -1.1, cut for the highest 2% near 3.2. The entries come from a sample that favours the highest values as a whole.
parameter: log2 fold change of degron read counts

The examples below pair each entry with its known result.
sequence.content: LCCNQCGFFCTQKGNLLRHIKL [46L_47C_49N_50Q_52G_53F_54F_55C_67L_, Q9UKT9]
log2 fold change of degron read counts: -0.874
--
sequence.content: FKCEICGAKFTQKGNLLRHIKL [46F_47K_49E_50I_52G_53A_54K_55F_67L_, Q9UKT9]
log2 fold change of degron read counts: -1.37
--
sequence.content: FLCEICGAKFTQKGNLLRHIKL [46F_47L_49E_50I_52G_53A_54K_55F_67L_, Q9UKT9]
log2 fold change of degron read counts: 2.07

Turning now to a further record.
log2 fold change of degron read counts for FTCSVCGHAFTQKGNLLRHIKL [46F_47T_49S_50V_52G_53H_54A_55F_67L_, Q9UKT9] ? -2.32
